# measuredTarget: human GPR40 (Homo sapiens)
# Construct: expressed in transfected cells
# Sequence (O14842 whole entry): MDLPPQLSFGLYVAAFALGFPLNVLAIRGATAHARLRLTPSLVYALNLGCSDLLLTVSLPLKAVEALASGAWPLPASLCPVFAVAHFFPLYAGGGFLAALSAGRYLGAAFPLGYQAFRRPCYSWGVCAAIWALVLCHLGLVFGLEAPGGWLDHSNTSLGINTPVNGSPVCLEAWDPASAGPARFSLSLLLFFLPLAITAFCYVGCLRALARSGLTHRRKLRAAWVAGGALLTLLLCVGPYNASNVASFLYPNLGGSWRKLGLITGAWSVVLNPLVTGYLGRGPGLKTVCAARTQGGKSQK
# assayNotes: Evaluation of human GPR40 agonist activity with increase in intracellular Ca2+ concentration as an index (FLIPR Tetra)
# Type: cell-based
# conditionNotes: test compound 1 μM; CHO(dhfr-) cells stably expressing human GPR40; 100% = activity of 1 μM WO2009/048527 Example 99.2, 0% = DMSO
activation at 1 µM by entry:

>  <molecule>
COc1ccc(F)c(-c2ccc(OCc3cccc(C(CC(=O)O)C4CC4)c3)cc2CC(C)(C)C)c1 (stereo not drawn)

>  <activation at 1 µM>
103%

$$$$
>  <molecule>
COc1ccc(F)c(-c2ccc(OCc3cccc(C(C#CC4CC4)CC(=O)O)c3)cc2CC(C)(C)C)c1 (stereo not drawn)

>  <activation at 1 µM>
101%

$$$$
>  <molecule>
COc1ccc(F)c(-c2ccc(OCc3cccc(C(CC(=O)O)C4CC4C#N)c3)cc2CC(C)(C)C)c1 (stereo not drawn)

>  <activation at 1 µM>
98%

$$$$
>  <molecule>
CCOc1ccc(F)c(-c2ncc(OCc3cccc(C(CC(=O)O)C4CC4)c3)cc2CC(C)(C)C)c1 (stereo not drawn)

>  <activation at 1 µM>
116%

$$$$
>  <molecule>
CC(C)(C)Cc1cc(OCc2cccc(C(CC(=O)O)C3CC3)c2)cnc1-c1cccc(OC(F)(F)F)c1 (stereo not drawn)

>  <activation at 1 µM>
-23%

$$$$
>  <molecule>
COc1ccc(F)c(-c2ccc(OCc3cccc(C(CC(=O)O)C4CC4)c3)cc2-c2nnc(C(F)(F)F)s2)c1 (stereo not drawn)

>  <activation at 1 µM>
91%

$$$$
>  <molecule>
COc1cc(-c2ccc(OCc3cccc(C(CC(=O)O)C4CC4)c3)cc2CC(C)(C)C)c(F)cn1 (stereo not drawn)

>  <activation at 1 µM>
105%

$$$$
>  <molecule>
CC(C)(C)Cc1cc(OCc2cccc(C(CC(=O)O)C3CC3)c2)cnc1-c1cc(O)ccc1F (stereo not drawn)

>  <activation at 1 µM>
123%

$$$$
>  <molecule>
COc1ccc(F)c(-c2ccc(OCc3cc(C(CC(=O)O)C4CC4)ncn3)cc2CC(C)(C)C)c1 (stereo not drawn)

>  <activation at 1 µM>
108%

$$$$
>  <molecule>
CC(C)Oc1ccc(F)c(-c2ncc(OCc3cccc(C(CC(=O)O)C4CC4)c3)cc2CC(C)(C)C)c1 (stereo not drawn)

>  <activation at 1 µM>
61%

$$$$
>  <molecule>
COc1ccc(F)c(-c2ccc(OCc3cccc(C(CC(=O)O)C4CC4)c3)cc2OC(C)(C)C)c1 (stereo not drawn)

>  <activation at 1 µM>
104%

$$$$
>  <molecule>
Cc1cccc(-c2ncc(OCc3cccc(C(CC(=O)O)C4CC4)c3)cc2CC(C)(C)C)c1 (stereo not drawn)

>  <activation at 1 µM>
92%

$$$$
>  <molecule>
COc1ccc(F)c(-c2ncc(OCc3cccc(C(CC(=O)O)C4CC4)c3)cc2CC(C)(C)C)c1 (stereo not drawn)

>  <activation at 1 µM>
99%

$$$$
>  <molecule>
COc1ccc(F)c(-c2ccc(OCc3cccc(C(CC(=O)O)C4CC4)c3)cc2C(F)C2(C#N)CCCC2)c1 (stereo not drawn)

>  <activation at 1 µM>
106%

$$$$
>  <molecule>
COc1cccc(-c2ncc(OCc3cccc(C(CC(=O)O)C4CC4)c3)cc2CC(C)(C)C)c1 (stereo not drawn)

>  <activation at 1 µM>
117%

$$$$
